These measurements were taken from patent US20180057604A1.

- target or system: BACE1 (HTRF long substrate and FRET short substrate assays of Example 9D)
- method summary: cell-based or functional assay

binder	EC50, HTRF long substrate [nM]
5260 (antibody, V domains shown, anti-BACE1 IgG) VH: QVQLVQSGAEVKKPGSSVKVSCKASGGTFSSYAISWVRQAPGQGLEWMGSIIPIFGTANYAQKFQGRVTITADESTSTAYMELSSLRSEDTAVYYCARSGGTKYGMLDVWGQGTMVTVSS VL: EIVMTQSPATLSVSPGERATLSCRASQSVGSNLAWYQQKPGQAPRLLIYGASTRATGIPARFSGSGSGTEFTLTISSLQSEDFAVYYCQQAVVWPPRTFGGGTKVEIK	720
